Source of measurements: PubChem BioAssay (NCI)

The reader will find reported growth inhibition values listed item by item below.
Experiment: NCI Yeast Anticancer Drug Screen. Data for the mlh1 rad18 strain (AID 175)
Conditions: S. cerevisiae mlh1 rad18 strain growth inhibition; at 50.0 µM; hits give high values
This is part of a sample that, as a whole, favours compounds with a hit. Of some 79,000 tested, about 15% had one in any assay. The source made the active and inactive calls. No stated cut-off is given here; in the data, active means growth inhibition above about 70%; inactive means the rest.
observable: growth inhibition

* CCCCCCCCCCC1OCC(C)(C)CO1 | 11.4% (inactive)
* COc1cc(C2c3cc4c(cc3C(OC(=O)C[n+]3ccccc3)C3COC(=O)C23)OCO4)cc(OC)c1OC (centres undefined) | 16.5% (inactive)
* COC1(C)CNc2ccccc2C(=O)N1 (centres undefined) | 6.55% (inactive)
* NCC1CCCCO1 (centres undefined) | -4.65% (inactive)
* CCOC(=O)C(=CN(C)c1ccc([N+](=O)[O-])cc1)C(=O)OCC | 15.5% (inactive)
* CCOC(=O)CCCCCCCCC(=O)Nc1ccc(-n2[nH]c(=O)cc2C)cc1 | -3.3% (inactive)
* COC(=O)/C(=N\NC(=S)NN)C(C(=O)C(=O)Nc1ccccc1C(N)=O)c1nc2ccccc2[nH]c1=O (centres undefined) | 23.1% (inactive)
* Cn1nc(-c2ccc(Cl)c(Cl)c2)[n+]([O-])c2c(=O)n(C)c(=O)nc1-2 | 91.3% (active)
* O=C(OC(=O)c1ccc(Cl)cc1)c1ccc(Cl)cc1 | -7.35% (inactive)
* Cc1ccc2snc(C(=O)O)c2c1[N+](=O)[O-] | 8.6% (inactive)
* CCC1(C#N)OC1C (centres undefined) | 27.4% (inactive)
* NC(=O)C(Cc1ccccc1)c1ccccc1 (centres undefined) | 18.4% (inactive)
* COc1cc2cnc3c4ccccc4ccc3c2cc1OC | -9.3% (inactive)
* CC(=O)OCCCC(C)Nc1ccnc2cc(Cl)ccc12 (centres undefined) | 11.3% (inactive)
* C/C(CCn1[nH]c(=O)ccc1=O)=N\N=C(N)N | 1.7% (inactive)
* O=C1CCC2CN(C(=O)c3ccccc3)CCC2C1 (centres undefined) | 22.2% (inactive)
* CCOC(=O)c1c(-c2ccccc2)nn(CC(N)=O)c1CO | -10.7% (inactive)
* O=[N+]([O-])C1=C(c2ccccc2)SC(Br)=C(c2ccccc2)S1 | 7.65% (inactive)
* NS(=O)(=O)c1ccc(NC(=O)Nc2cccc(Cl)c2)cc1 | -11.3% (inactive)
* O=[N+]([O-])c1ccc(SC2OC(CO)C(O)C(O)C2O)c([N+](=O)[O-])c1 (centres undefined) | 20.8% (inactive)
* O=C(NNC(=O)c1ccncc1)c1ccncc1 | -23.9% (inactive)
* Cc1c(C(N)=O)c(-c2ccccc2)c(-c2ccccc2)n1Nc1ccccc1 | 23.7% (inactive)
* Nc1nc2c([nH]c(=O)n2C2OC(CO)C(O)C2O)c(=O)n1N (centres undefined) | 5.2% (inactive)
* FC1(F)ON2CCc3ccccc3C2[C@H]1c1ccccc1 (some centres undefined) | -50% (inactive)

---

Assay: NCI Yeast Anticancer Drug Screen. Data for the sgs1 mgt1 strain (AID 161);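 further: 0% = growth of cultures given vehicle only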
Conditions: S. cerevisiae sgs1 mgt1 strain, at 50.0 µM, hits give high values
About 79,000 compounds went through this panel and 15% of them were active in at least one assay; those are over-represented in the sample as a whole.
observable: growth inhibition (%)

• COc1ccc(OC)c2c(Nc3ccc(S(=O)(=O)O)c4cc(S(=O)(=O)O)cc(S(=O)(=O)O)c34)cc(C)nc12 = 9.25
• C/C(=N\O)c1cccs1 = -6
• COC(=O)NC1C(C)OC(OC2C/C=C(/C)C3C=CC4C(OC5CC(OC6CCC(OC7CC(O)C(OC8CCC(O)C(C)O8)C(C)O7)C(C)O6)C(OC(C)=O)C(C)O5)C(C)CC(C)C4C3(C)/C(O)=C3/C(=O)OC4(CC(C=O)=CC(O)C4/C=C\2C)C3=O)CC1(C)[N+](=O)[O-] (configuration not stated) = 22.2
• O=C1CSC2=NC3=C(COC/C3=C\c3ccc(Br)cc3)C(c3ccc(Br)cc3)N12 (configuration not stated) = 39.1
• CN/C=C(/OCc1ccccc1)c1ccc(O)c(O)c1 = 3.05
• COc1ccc(NC(=S)c2ccoc2C)cc1CC(=O)OC(C)C = 48.5
• Cc1ccc(N)cc1S(=O)(=O)O = -9.45
• CCC(c1ccc(OCc2ccccc2)cc1)c1cc2c(cc1OCCO)OCO2 (configuration not stated) = -3
• O=C(Nc1ccc2c(O)c(N=Nc3ccc(N=Nc4ccc(S(=O)(=O)O)cc4)cc3)c(S(=O)(=O)O)cc2c1)c1ccccc1 = 2.9
• Cc1c(C2CCC(=O)C2)c2ccccc2n1C (configuration not stated) = -4.6
• CC(C)(C)C1CCC(=NO)CC1 (configuration not stated) = 16.5
• CC1c2c(cc(=O)n(Cc3ccccc3)c2O)C(=O)N1Cc1ccccc1 (configuration not stated) = 3.85
• O=S(=O)(N1CCOCC1)N1CCOCC1 = -3.55
• C[Si](Cn1ccc(=O)n(C[Si](C)(c2ccccc2)c2ccccc2)c1=O)(c1ccccc1)c1ccccc1 = -12.3
• CCc1ccccc1-n1[nH]c(C)c(C=N)c1=O = -18.2
• O=C(CCBr)NC(=O)OC/C=C\c1ccccc1 = 12.2
• O=c1c(Br)c(-c2ccccc2Br)[nH]c2ccccc12 = 11.3
• CCc1ccc2[nH]c(C(=O)O)cc2c1 = -1.75
• CCOP(=O)(O)C(c1ccccc1)c1ccccc1 = 3.5
• Cc1cccc(C(C#N)C(=O)CCCC(=O)Nc2ccccc2[N+](=O)[O-])c1 (configuration not stated) = 5.15
• C(#CCN1CCOCC1)CCCN1CCOCC1 = -2.45
• CCOC(=N)CC(=O)Nc1ccccc1 = 1.65

---

Test: NCI Yeast Anticancer Drug Screen. Data for the sgs1 mgt1 strain (AID 161);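 further: 0% = growth of cultures given vehicle only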
Details: S. cerevisiae sgs1 mgt1 strain, at 50.0 µM, hits give high values
The panel holds about 79,000 compounds, 15% with a hit somewhere; the sample as a whole holds those more often.
The reader will find reported growth inhibition values listed item by item below.
observable: growth inhibition (%)

• COC(=O)C(N)Cc1ccc(O)c(O)c1 (configuration not stated) = 8.1
• O=CNc1ccc(F)c(F)c1 = -6.95
• COc1cc(Cc2cc(OC)c(OC)c(OC)c2)ccc1O = -8.5
• N#CC(/C(CCCC(=O)Nc1cccc([N+](=O)[O-])c1)=N/NC(=O)c1cc2ccccc2cc1O)c1ccccc1 (configuration not stated) = -17.2
• COCCCNc1ncnc2c1cnn2-c1ccc(Cl)cc1 = -0.25
• CCCCCCC#CC(=O)OCCCC = 6.05
• CCOC(=O)CCC(NC(=O)c1ccc(Nc2nc3ccccc3nc2-c2cccs2)cc1)C(=O)OCC (configuration not stated) = 20.1
• COc1ccc(C2c3cc4c(cc3OC(C)(OC)C2C)OCO4)cc1 (configuration not stated) = -3.25
• CC(=O)Oc1ccc(C(c2ccc(OC(C)=O)cc2)c2ccccn2)cc1 = -9.25
• COC(=O)/C=C1/Nc2c(N)nc(N)nc2NC1=O = 5.95
• CSC1=Nc2ccccc2N=C(c2ccccc2)C1 = 52
• ClC1=C(Cl)C2(Cl)CC1(Cl)C1CCCCC12 (configuration not stated) = 21.4

---

Test: NCI Yeast Anticancer Drug Screen. Data for the bub3 strain (AID 167)
Conditions: S. cerevisiae bub3 mutant strain, at 50.0 µM, hits give high values
This is part of a sample that, as a whole, favours compounds with a hit. Of some 79,000 tested, about 15% had one in any assay.
The following ranges of growth inhibition define the classes used here: LOW: < -10%; MEDIUM: ≥ -10% and < 20%; HIGH: ≥ 20%

* CN(C=O)c1ccccc1 | MEDIUM
* COc1ccc(CCNC(=S)NN)cc1OC | LOW
* CCc1ccccc1-n1[nH]c(C)c(C=N)c1=O | LOW
* N=C(N=C(N)N)N1CCOCC1 | HIGH
* CCCCCCCCCCCC1=C(O)C(=O)C(I)=C(O)C1=O | MEDIUM
* Cc1cc(C)cc(C(C)C)c1 | LOW
* Cc1ccc(NC(=S)NCCc2ccccn2)cc1C | HIGH
* Nc1ccc(N)c(C(=O)O)c1 | LOW
* CCCCC1SC(N)=NC1=O (centres undefined) | MEDIUM
* CC1CNC(=S)O1 (centres undefined) | LOW
* COc1ccc(/C=N/Nc2nc3ccccc3c(=O)n2-c2ccccc2)cc1 | LOW
* COC1=C(c2ccccc2)P(=O)(Cc2ccccc2)C2CCCC12 (centres undefined) | HIGH
* COc1cc(NCCCCCNC(C)C)c2ncccc2c1 | HIGH
* COc1ccc(-n2c(CCCC(=O)O)nc3c2C(=O)c2ccccc2C3=O)cc1 | HIGH

---

Assay: NCI Yeast Anticancer Drug Screen. Data for the mec2-1 strain (AID 157)
Details: S. cerevisiae mec2-1 strain, at 50.0 µM, hits give high values
The panel holds about 79,000 compounds, 15% with a hit somewhere; the sample as a whole holds those more often.
observable: growth inhibition (%)

* CCC(CO)Nc1nc2c(Cl)cc(Cl)cc2c2ccccc12 (stereo not given) | 1.55
* CC1OC(OC2C(CO)OC(O[C@H]3CC[C@@]4(C)C(=CC[C@H]5[C@@H]6C[C@@H]7O[C@]8(CC[C@@H](C)CN8)[C@@H](C)[C@@H]7[C@@]6(C)CC[C@@H]54)C3)C(O)C2O)C(O)C(O)C1O (stereo not given in full) | -26.6
* CCCCCCCCCCC1OCC(C)(C)CO1 | -12.2
* OC1c2ccccc2-c2ccc(Cl)cc21 (stereo not given) | 14.2
* CCCCCCCCCCOc1ccc(C=NC/C=C/c2ccc(CC)cc2)cc1 | -13.8
* COC(=O)CCC(=O)c1ccc2c(c1)CCC2 | -26.2
* COc1cc(C=O)cc([N+](=O)[O-])c1O | -9.75
* COC(=O)/C(=N/NC(C)(C)C)C(C(=O)OC)C(=O)C(=O)Nc1nc2ccc([N+](=O)[O-])cc2s1 (stereo not given) | 8.15
* O=[N+]([O-])/C(C(Cl)=C(Cl)Cl)=C1\NCCS1 | 25.5
* CC12CCC3c4ccc(O)cc4CCC3C1CC(OC1OC(C(=O)O)C(O)C(O)C1O)C2O (stereo not given) | 5.9
